target: Cytochrome P450 1A2 (Homo sapiens) (UniProt P05177); experiment: p450-cyp1a2 (AID 410); details: recombinant CYP1A2, luciferin-ME demethylation, luminescence; series mostly up to 11.4 µM
Sequence (P05177 whole entry, looked up): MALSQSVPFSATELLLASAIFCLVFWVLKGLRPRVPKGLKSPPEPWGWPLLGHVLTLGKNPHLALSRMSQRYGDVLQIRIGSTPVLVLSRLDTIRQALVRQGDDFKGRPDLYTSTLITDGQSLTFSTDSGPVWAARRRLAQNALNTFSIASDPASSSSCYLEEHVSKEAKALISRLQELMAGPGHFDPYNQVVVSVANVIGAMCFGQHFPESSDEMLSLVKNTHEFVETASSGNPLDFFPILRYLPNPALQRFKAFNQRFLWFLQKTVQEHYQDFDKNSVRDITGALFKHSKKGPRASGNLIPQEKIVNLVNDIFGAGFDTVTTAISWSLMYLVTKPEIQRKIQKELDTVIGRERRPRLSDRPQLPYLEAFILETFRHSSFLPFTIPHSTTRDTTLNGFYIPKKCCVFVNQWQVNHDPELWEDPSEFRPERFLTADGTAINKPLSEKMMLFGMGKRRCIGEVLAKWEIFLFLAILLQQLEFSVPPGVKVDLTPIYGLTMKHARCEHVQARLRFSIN
Inconclusive results are not listed. Activity calls are given as the source filed them. Calls follow the shape of the full dose curve.
Labels: active, inactive

>  <MOLECULE>
NC[C@@H](O)CSP(=O)(O)O

>  <SYSTEM_UNDER_TEST>
Cytochrome P450 1A2 (Homo sapiens) (UniProt P05177)

>  <CAT>
inactive

$$$$
>  <MOLECULE>
COc1cc2c(cc1OC)[C@@]13CCN4CC5=CCO[C@H](CC(=O)O)[C@@H]([C@H]1N2)[C@H]5C[C@H]43

>  <SYSTEM_UNDER_TEST>
Cytochrome P450 1A2 (Homo sapiens) (UniProt P05177)

>  <CAT>
inactive

$$$$
>  <MOLECULE>
CSC([N-]/N=C/c1cccc(C)n1)=[S]=[Cu].CS[C@H]([S-])[N-]/N=C/c1cccc(C)n1

>  <SYSTEM_UNDER_TEST>
Cytochrome P450 1A2 (Homo sapiens) (UniProt P05177)

>  <CAT>
active

$$$$
>  <MOLECULE>
CC(C)=C[C@H]1[C@@H](C(=O)OCc2cc3c(cc2Cl)OCO3)C1(C)C

>  <SYSTEM_UNDER_TEST>
Cytochrome P450 1A2 (Homo sapiens) (UniProt P05177)

>  <CAT>
active

$$$$
>  <MOLECULE>
O=P(O)(O)c1ccccc1 (tested in a mixture with another compound)

>  <SYSTEM_UNDER_TEST>
Cytochrome P450 1A2 (Homo sapiens) (UniProt P05177)

>  <CAT>
inactive

$$$$
>  <MOLECULE>
NC(N)=NCCN=C(N)N

>  <SYSTEM_UNDER_TEST>
Cytochrome P450 1A2 (Homo sapiens) (UniProt P05177)

>  <CAT>
inactive

$$$$
>  <MOLECULE>
CC1(C)N=C(N)N=C(N)N1c1cccc(C(=O)Nc2ccc(S(=O)(=O)F)cc2)c1

>  <SYSTEM_UNDER_TEST>
Cytochrome P450 1A2 (Homo sapiens) (UniProt P05177)

>  <CAT>
inactive

$$$$
>  <MOLECULE>
N[C@@H](Cc1cc(Br)c(O)c(Br)c1)C(=O)O

>  <SYSTEM_UNDER_TEST>
Cytochrome P450 1A2 (Homo sapiens) (UniProt P05177)

>  <CAT>
inactive

$$$$
>  <MOLECULE>
CC1=C2C(=O)[C@@H]3[C@@H](CC=C4C[C@@H](O)CC[C@@]43C)[C@H]2CC[C@@]12O[C@H]1C[C@H](C)CN[C@H]1[C@@H]2C

>  <SYSTEM_UNDER_TEST>
Cytochrome P450 1A2 (Homo sapiens) (UniProt P05177)

>  <CAT>
inactive

$$$$
>  <MOLECULE>
COc1ccc2c3c1O[C@@H]1C(=O)CC[C@@]4(O)[C@@H](C2)N(CC2CC2)CC[C@]314

>  <SYSTEM_UNDER_TEST>
Cytochrome P450 1A2 (Homo sapiens) (UniProt P05177)

>  <CAT>
inactive

$$$$
>  <MOLECULE>
N[C@H](Cn1ccc(=O)[nH]c1=O)C(=O)O

>  <SYSTEM_UNDER_TEST>
Cytochrome P450 1A2 (Homo sapiens) (UniProt P05177)

>  <CAT>
inactive

$$$$
>  <MOLECULE>
N[C@H](Cc1c[nH]c2ccccc12)P(=O)(O)O

>  <SYSTEM_UNDER_TEST>
Cytochrome P450 1A2 (Homo sapiens) (UniProt P05177)

>  <CAT>
inactive

$$$$
>  <MOLECULE>
O=C(NCP(=O)(O)O)c1cccnc1

>  <SYSTEM_UNDER_TEST>
Cytochrome P450 1A2 (Homo sapiens) (UniProt P05177)

>  <CAT>
inactive

$$$$
>  <MOLECULE>
CCN(CC)c1ncnc2c1ncn2[C@@H]1O[C@@H](COP(=O)(O)OP(=O)(O)C(Br)(Br)P(=O)(O)O)[C@H](O)[C@@H]1O

>  <SYSTEM_UNDER_TEST>
Cytochrome P450 1A2 (Homo sapiens) (UniProt P05177)

>  <CAT>
inactive

$$$$
>  <MOLECULE>
C[C@@H](O)CN(CCN(C[C@@H](C)O)C[C@@H](C)O)C[C@@H](C)O.O=[N+]([O-])O.[Cu]

>  <SYSTEM_UNDER_TEST>
Cytochrome P450 1A2 (Homo sapiens) (UniProt P05177)

>  <CAT>
active

$$$$
>  <MOLECULE>
c1csc(CN2CCCC3(CCNCC3)C2)n1

>  <SYSTEM_UNDER_TEST>
Cytochrome P450 1A2 (Homo sapiens) (UniProt P05177)

>  <CAT>
inactive

$$$$
>  <MOLECULE>
O=C(O)C(O)(c1ccc(-c2ccccc2)cc1)c1ccc(-c2ccccc2)cc1

>  <SYSTEM_UNDER_TEST>
Cytochrome P450 1A2 (Homo sapiens) (UniProt P05177)

>  <CAT>
inactive

$$$$
>  <MOLECULE>
c1cc(C2N3CCCN2CC3)ccn1 (stereo unspecified)

>  <SYSTEM_UNDER_TEST>
Cytochrome P450 1A2 (Homo sapiens) (UniProt P05177)

>  <CAT>
active

$$$$
>  <MOLECULE>
C[C@]12CC[C@H](O)CC1=CC[C@@H]1[C@H]2CC[C@]2(C)C(=O)CC[C@H]12

>  <SYSTEM_UNDER_TEST>
Cytochrome P450 1A2 (Homo sapiens) (UniProt P05177)

>  <CAT>
inactive

$$$$
>  <MOLECULE>
CSCC[C@@H](N)P(C)(=O)O

>  <SYSTEM_UNDER_TEST>
Cytochrome P450 1A2 (Homo sapiens) (UniProt P05177)

>  <CAT>
inactive

$$$$
>  <MOLECULE>
COc1cc([C@@H](O)CN)ccc1O

>  <SYSTEM_UNDER_TEST>
Cytochrome P450 1A2 (Homo sapiens) (UniProt P05177)

>  <CAT>
inactive

$$$$
